We begin with a simple list: items and their reported pIC50.
Molecular target: Transient receptor potential cation channel subfamily V member 1 (Homo sapiens, UniProt Q8NER1)
Sequence (Q8NER1 whole entry): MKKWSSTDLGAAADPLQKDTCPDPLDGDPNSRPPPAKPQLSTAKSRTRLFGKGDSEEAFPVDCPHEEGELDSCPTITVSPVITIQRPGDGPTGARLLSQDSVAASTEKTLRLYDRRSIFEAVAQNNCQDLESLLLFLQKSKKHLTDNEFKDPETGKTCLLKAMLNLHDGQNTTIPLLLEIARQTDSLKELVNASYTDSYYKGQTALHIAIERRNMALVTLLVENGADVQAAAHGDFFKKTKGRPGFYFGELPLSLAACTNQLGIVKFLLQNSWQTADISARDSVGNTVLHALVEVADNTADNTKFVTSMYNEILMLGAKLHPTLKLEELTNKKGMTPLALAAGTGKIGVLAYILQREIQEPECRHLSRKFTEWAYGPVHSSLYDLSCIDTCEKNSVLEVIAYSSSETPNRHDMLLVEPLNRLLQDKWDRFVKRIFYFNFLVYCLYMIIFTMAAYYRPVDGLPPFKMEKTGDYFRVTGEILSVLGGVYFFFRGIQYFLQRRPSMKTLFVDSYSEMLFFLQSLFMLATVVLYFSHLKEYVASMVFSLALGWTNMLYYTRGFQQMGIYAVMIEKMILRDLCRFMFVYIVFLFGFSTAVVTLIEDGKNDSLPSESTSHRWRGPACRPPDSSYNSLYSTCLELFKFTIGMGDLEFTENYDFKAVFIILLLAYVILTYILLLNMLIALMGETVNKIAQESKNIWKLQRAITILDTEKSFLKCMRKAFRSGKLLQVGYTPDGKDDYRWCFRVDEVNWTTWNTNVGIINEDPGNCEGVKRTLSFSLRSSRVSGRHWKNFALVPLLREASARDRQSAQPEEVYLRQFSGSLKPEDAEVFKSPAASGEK
Experiment: Antagonist activity at human recombinant TRPV1 receptor expressed in human 1321 cells assessed as inhibition of capsaicin-induced in intracellular calcium levels by FLIPR assay
Reminder that pIC50 is minus the log10 of a molar concentration.

Prompt: Name the recorded pIC50 for OC1CCc2cccc(Nc3ncc(-c4ccc(N5CCCC5)cc4)o3)c2C1 (centres undefined) .
Completion: 7.00

* * *

Test: Terminal phase volume of distribution […] in rat at 10 umol/kg, iv
Format: ADME, organism-based
Conditions: in vivo, read-out: Vbeta
We begin with a simple list: items and their reported Vd.
I only need the number, in L/kg, no unit after it.

Prompt: Name the recorded Vd for OC1CCc2cccc(Nc3ncc(-c4ccc(C(F)(F)F)cc4)o3)c2C1 (centres undefined) .
Completion: 5.4

Prompt: Proceed to `Cc1nc(Nc2cccc3c2C[C@@H](O)CC3)oc1-c1ccc(C(F)(F)F)cc1`
Completion: 12

Prompt: Proceed to `Cc1nc(Nc2cccc3c2C[C@H](O)CC3)oc1-c1ccc(C(F)(F)F)cc1`
Completion: 6.8

Prompt: Proceed to Cc1nc(Nc2cccc3c2CC(O)CC3)oc1-c1ccc(C(F)(F)F)cc1 (centres undefined)
Completion: 10

Attribution: ChEMBL document CHEMBL1177639
